assay: NCI Yeast Anticancer Drug Screen. Data for the bub3 strain (AID 167); conditions: S. cerevisiae bub3 mutant strain, at 50.0 µM (retest, dose inferred, filed as 5.0)
Compounds without any hit were thinned out: in the full panel of roughly 79,000, 15% have a hit. Activity calls are given as the source filed them. Rule as the data show it: active = growth inhibition above about 70%; inactive = the rest.
Field 'call' accepts true (1) for active, false (0) for inactive

[
  {
    "compound": "CCN(CCCOc1ccccc1)CCN(CC)CCCOc1ccccc1",
    "category": "false (0)"
  },
  {
    "compound": "Cc1cccc(N=Nc2ccc(O)cc2)c1",
    "category": "true (1)"
  },
  {
    "compound": "O=c1nc(N2CCCC2)nc(N2CCCC2)s1",
    "category": "false (0)"
  },
  {
    "compound": "CN(C)CCCNc1c2ccccc2nc2cccc([N+](=O)[O-])c12",
    "category": "true (1)"
  },
  {
    "compound": "NC1=C(O)C(=O)C(c2c3ccccc3cc3ccccc23)O1 (stereo unspecified)",
    "category": "true (1)"
  }
]

Returns: the outcome recorded for `O=[N+]([O-])c1cc(Cl)cc(C(c2cc(Cl)cc([N+](=O)[O-])c2O)C(Cl)(Cl)Cl)c1O` in this assay.
true (1)

---

Assay: NCI Yeast Anticancer Drug Screen. Data for the cln2 rad14 strain (AID 165);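 also: 0% = growth equal to vehicle treated cultures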
Conditions: S. cerevisiae cln2 rad14 strain, at 50.0 µM (retest, dose inferred, filed as 5.0), hits give high values
Procedure: Growth inhibition of yeast strains with defined genetic alterations is measured as a screen for potential anti-cancer activity. Selected strains with alterations in DNA damage repair or cell cycle control were exposed to compounds and growth inhibition was measured relative to vehicle treated controls. The strain used in this assay is cln2 rad14
About 79,000 compounds went through this panel and 15% of them were active in at least one assay; those are over-represented in the sample as a whole.
Each entry gets Not met if its growth inhibition stays under 60%, and Met if its growth inhibition is 60% or above.

// below: answered molecules
[
  {
    "molecule": "CCN(CCCOc1ccccc1)CCN(CC)CCCOc1ccccc1",
    "category": "Not met"
  },
  {
    "molecule": "Nc1ncc2ccccc2c1-c1ccc(NC(=O)CCCl)cc1",
    "category": "Not met"
  },
  {
    "molecule": "Cc1cnc2c(c1C)C(=O)c1ccccc1C2=O",
    "category": "Met"
  },
  {
    "molecule": "CC1=C/C(=C\\c2ccc([N+](=O)[O-])o2)C(=O)O1",
    "category": "Met"
  },
  {
    "molecule": "CCCCCCCCCc1cccc(N2C(N)=NC(N)=NC2(C)C)c1",
    "category": "Not met"
  },
  {
    "molecule": "COc1cccc2c1C(=O)c1c(O)c3c(c(O)c1C2=O)C[C@@](O)(C(=O)CO)C[C@@H]3OC1CC(N(C)C)C(O)C(C)O1 (some centres undefined)",
    "category": "Met"
  }
]

Quick check, growth inhibition >= 60%? `CN(C)c1ccc(N=Nc2ccc(/C=C3\CCOC3=O)cc2)cc1`
Not met

Quick check, growth inhibition >= 60%? `O=S(=O)(CC(Br)Br)c1ccccc1`
Met

---

assay: NCI Yeast Anticancer Drug Screen. Data for the mec2-1 strain (AID 157); details: S. cerevisiae mec2-1 strain, at 5.0 µM (retest, dose inferred, filed as 0.5), hits give high values
This is part of a sample that, as a whole, favours compounds with a hit. Of some 79,000 tested, about 15% had one in any assay. Activity calls are given as the source filed them. No stated cut-off is given here; in the data, active means growth inhibition above about 70%; inactive means the rest.
recorded.endpoint: growth inhibition

[
  {
    "compound": "CCCCCCCCCCN",
    "recorded.endpoint": "growth inhibition",
    "recorded.measurement": "-1% (inactive)"
  },
  {
    "compound": "O=[N+]([O-])c1c(I)ccc2ccccc12",
    "recorded.endpoint": "growth inhibition",
    "recorded.measurement": "0% (inactive)"
  },
  {
    "compound": "Cc1ccc(S(=O)(=O)Nc2ccc(C)cc2C)cc1",
    "recorded.endpoint": "growth inhibition",
    "recorded.measurement": "-6% (inactive)"
  },
  {
    "compound": "C[Si](C)c1cccc(Cl)c1",
    "recorded.endpoint": "growth inhibition",
    "recorded.measurement": "0% (inactive)"
  }
]

Item `CCOC(=O)Nc1cc2c(cn1)[nH]c1ccccc12` : provide growth inhibition
7% (inactive)

Item `O=[N+]([O-])c1ccc(SC(=S)N2CCCCC2)c([N+](=O)[O-])c1` : provide growth inhibition
16% (inactive)

Item `O=C(O)CC/C(=N\Nc1ccccc1)C(=O)O` : provide growth inhibition
-2% (inactive)

Item `CCOc1cc(C(c2ccc(N(C)C)cc2)c2ccc(N(C)C)cc2)ccc1O` : provide growth inhibition
-1% (inactive)

Item `COc1ccc2c(c1)CCCN2CCCCCCCCCN1CCCCC1` : provide growth inhibition
27% (inactive)

---

experiment: NCI Yeast Anticancer Drug Screen. Data for the mec2-1 strain (AID 157); details: S. cerevisiae mec2-1 strain, at 50.0 µM (retest, dose inferred, filed as 5.0)
Compounds without any hit were thinned out: in the full panel of roughly 79,000, 15% have a hit. Activity calls are given as the source filed them. No stated cut-off is given here; in the data, active means growth inhibition above about 70%; inactive means the rest.
Field 'call' accepts YES (active), NO (inactive)

// below: answered compounds
[
  {
    "molecular.string": "c1ccc2nc3ccccc3nc2c1",
    "category": "NO"
  },
  {
    "molecular.string": "CC(C)(C)c1ccc(Br)c(CCC(=O)NO)c1",
    "category": "YES"
  },
  {
    "molecular.string": "O=C1C=CC(=O)c2c1cc1ccccc1c2O",
    "category": "YES"
  },
  {
    "molecular.string": "CC(=O)c1cccc(NC(=O)C(=O)NNc2n[nH]c(=S)n2N)c1",
    "category": "YES"
  }
]

Returns: the outcome recorded for `CC1=C(C(=O)Nc2cccc(Cl)c2)C(c2ccc([N+](=O)[O-])cc2)C(C(=O)Nc2cccc(Cl)c2)=C(C)N1` in this assay.
NO

Returns: the outcome recorded for `CCCCCCCCCCCCCCCCCCSSCCCCCCCCCCCCCCCCCC` in this assay.
NO

---

assay: NCI Yeast Anticancer Drug Screen. Data for the sgs1 mgt1 strain (AID 161);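 also: 0% = growth of cultures given vehicle only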; settings: S. cerevisiae sgs1 mgt1 strain, at 50.0 µM, hits give high values
About 79,000 compounds went through this panel and 15% of them were active in at least one assay; those are over-represented in the sample as a whole. Active and inactive are the calls of the source. No stated cut-off is given here; in the data, active means growth inhibition above about 70%; inactive means the rest.
recorded.endpoint: growth inhibition

Study these solved cases before continuing.
[
  {
    "molecule": "Cc1nc(N)nn1C",
    "growth inhibition": "-3.55% (inactive)"
  },
  {
    "molecule": "Clc1ccc(C2=C(c3ccccc3)C(c3ccc(Cl)cc3)N3C(=N[C@H]4CCCC[C@@H]43)N2)cc1 (stereo not given in full)",
    "growth inhibition": "89.3% (active)"
  },
  {
    "molecule": "CCOc1ccccc1N=Nc1ccc2oc(=O)c(C(=O)Nc3cccc(C)c3)cc2c1",
    "growth inhibition": "64.8% (inactive)"
  },
  {
    "molecule": "N#C/C(=C/c1cc(I)cc(I)c1O)C(N)=O",
    "growth inhibition": "78.8% (active)"
  }
]

Item `CNc1ccc(N=O)cc1` : provide growth inhibition
89% (active)

Item `Oc1ccc2cc(Br)ccc2c1` : provide growth inhibition
45.1% (inactive)

---

assay: NCI Yeast Anticancer Drug Screen. Data for the cln2 rad14 strain (AID 165);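 also: 0% = growth equal to vehicle treated cultures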; conditions: S. cerevisiae cln2 rad14 strain, at 50.0 µM, hits give high values
The panel holds about 79,000 compounds, 15% with a hit somewhere; the sample as a whole holds those more often.
Recorded growth inhibition, one value per entry.
Express the result in % but write the number alone.

Study these solved cases before continuing.
[
  {
    "compound": "CCCCNc1ccc(C(=O)OC2CCN(C)CC2)c(Cl)c1",
    "growth inhibition [%]": 84
  },
  {
    "compound": "NSc1ccc(N)s1",
    "growth inhibition [%]": 36.9
  }
]

Item NC(=O)N/N=C/C(O)C(O)C(O)C(O)CO (centres undefined) : provide growth inhibition
6.55

Item `O=C(OCc1ccccc1CN1CCOCC1)c1cccc(Br)c1` : provide growth inhibition
-4.15

Item `CN1C/C(=C\c2ccccc2)C(=O)/C(=C/c2ccccc2)C1` : provide growth inhibition
52.5

---

assay: NCI Yeast Anticancer Drug Screen. Data for the bub3 strain (AID 167); conditions: S. cerevisiae bub3 mutant strain, at 50.0 µM (retest, dose inferred, filed as 5.0), hits give high values
Compounds without any hit were thinned out: in the full panel of roughly 79,000, 15% have a hit.
recorded.endpoint: growth inhibition (%)
Express the result in % but write the number alone.

Study these solved cases before continuing.
[
  {
    "molecule": "COc1ccc(C2=NN(c3ccccc3)C[N+](c3ccc(OC)cc3)=N2)cc1",
    "measurement.unit": "%",
    "growth inhibition": 99
  },
  {
    "molecule": "N#Cc1ncc(Cl)cc1[N+](=O)[O-]",
    "measurement.unit": "%",
    "growth inhibition": 98
  },
  {
    "molecule": "Nc1ccc(-c2nc3ccccc3s2)cc1",
    "measurement.unit": "%",
    "growth inhibition": 99
  }
]

Item `[Cl][Sn]([CH2][CH2][Sn]([Cl])([c]1ccccc1)[c]1ccccc1)([c]1ccccc1)[c]1ccccc1` : provide growth inhibition
98

Item `COc1cc(C/C(=C/c2ccc(OC)c3occc23)[N+](=O)[O-])cc(OC)c1OC` : provide growth inhibition
97

Item `Cc1cc(S(=O)(=O)c2ccc(Cl)cc2)nc(S(=O)(=O)c2ccc(Cl)cc2)c1C#N` : provide growth inhibition
83

Item `CCc1cccc(CC)c1N=Nc1c(N)nc(N)[nH]c1=O` : provide growth inhibition
-3

Item COC([C@@H](OC(=O)c1ccccc1)[C@H](OC(=O)c1ccccc1)C(O)COC(=O)c1ccccc1)n1cc(C)c(=O)[nH]c1=O (stereo partly drawn) : provide growth inhibition
28

Item CC(=O)Nc1ccc(C(=O)NN2C(=O)C(Cl)C2c2cc(Br)cc(Br)c2O)cc1 (stereo not drawn) : provide growth inhibition
-11

Item `Clc1ccc(C(c2ccc(Cl)cc2)c2cncnc2)cc1` : provide growth inhibition
97

Numbers sourced from PubChem BioAssay (NCI).
